# SUBJECT_OF_TEST: human PD-1 (human) (UniProt Q15116)
# Sequence (Q15116 25-288): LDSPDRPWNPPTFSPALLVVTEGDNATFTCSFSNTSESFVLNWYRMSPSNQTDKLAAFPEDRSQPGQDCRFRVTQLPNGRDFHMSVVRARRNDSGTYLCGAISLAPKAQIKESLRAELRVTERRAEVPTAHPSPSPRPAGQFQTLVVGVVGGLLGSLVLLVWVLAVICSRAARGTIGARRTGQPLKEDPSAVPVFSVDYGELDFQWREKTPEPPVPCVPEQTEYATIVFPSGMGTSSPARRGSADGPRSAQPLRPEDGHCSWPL
VALUE_TYPE: IFN gamma levels pg/mL (MLR) (pg/mL)
Use pg/mL as the unit, but write only the number.

Given item variant PD-L2 IgV V89D Fc fusion (Fc fusion) LFTVTVPKELYIIEHGSNVTLECNFDTGSHVNLGAITASLQKVENDTSPHRERATLLEEQLPLGKASFHIPQVQVRDEGQYQCIIIYGDAWDYKYLTLKVKA , the value recorded as its IFN gamma levels pg/mL (MLR) is 1170

Given item variant PD-L2 IgV H15Q/Q72H/V89D Fc fusion (Fc fusion) LFTVTVPKELYIIEQGSNVTLECNFDTGSHVNLGAITASLQKVENDTSPHRERATLLEEQLPLGKASFHIPHVQVRDEGQYQCIIIYGDAWDYKYLTLKVKA , the value recorded as its IFN gamma levels pg/mL (MLR) is 1270

Given item variant PD-L2 IgV H15Q/N18D/T47A/Q72H/V73A/R76G/I86T/V89D Fc fusion (Fc fusion) LFTVTVPKELYIIEQGSDVTLECNFDTGSHVNLGAITASLQKVENDASPHRERATLLEEQLPLGKASFHIPHAQVGDEGQYQCIITYGDAWDYKYLTLKVKA , the value recorded as its IFN gamma levels pg/mL (MLR) is 1070

Given item variant PD-L2 IgV H15Q/S67L/I86T Fc fusion (Fc fusion) LFTVTVPKELYIIEQGSNVTLECNFDTGSHVNLGAITASLQKVENDTSPHRERATLLEEQLPLGKALFHIPQVQVRDEGQYQCIITYGVAWDYKYLTLKVKA , the value recorded as its IFN gamma levels pg/mL (MLR) is 1030

Given item variant PD-L2 IgV H15Q/S67L/Q72H/R76G/V89D Fc fusion (Fc fusion) LFTVTVPKELYIIEQGSNVTLECNFDTGSHVNLGAITASLQKVENDTSPHRERATLLEEQLPLGKALFHIPHVQVGDEGQYQCIIIYGDAWDYKYLTLKVKA , the value recorded as its IFN gamma levels pg/mL (MLR) is 1060

Given item variant PD-L2 IgV I13V/H15Q/T47A/E58G/S67L/Q82R/V89D Fc fusion (Fc fusion) LFTVTVPKELYIVEQGSNVTLECNFDTGSHVNLGAITASLQKVENDASPHRERATLLGEQLPLGKALFHIPQVQVRDEGQYRCIIIYGDAWDYKYLTLKVKA , the value recorded as its IFN gamma levels pg/mL (MLR) is 836

Given item variant PD-L2 IgV I13V/H15Q/I36V/T47A/S67L/V89D Fc fusion (Fc fusion) LFTVTVPKELYIVEQGSNVTLECNFDTGSHVNLGAVTASLQKVENDASPHRERATLLEEQLPLGKALFHIPQVQVRDEGQYQCIIIYGDAWDYKYLTLKVKA , the value recorded as its IFN gamma levels pg/mL (MLR) is 1360

Given item variant PD-L2 IgV E44D Fc fusion (Fc fusion) LFTVTVPKELYIIEHGSNVTLECNFDTGSHVNLGAITASLQKVDNDTSPHRERATLLEEQLPLGKASFHIPQVQVRDEGQYQCIIIYGVAWDYKYLTLKVKA , the value recorded as its IFN gamma levels pg/mL (MLR) is 1500

Given item variant PD-L2 IgV H15Q/L33P/T47A/S67L/P71S/V89D Fc fusion (Fc fusion) LFTVTVPKELYIIEQGSNVTLECNFDTGSHVNPGAITASLQKVENDASPHRERATLLEEQLPLGKALFHISQVQVRDEGQYQCIIIYGDAWDYKYLTLKVKA , the value recorded as its IFN gamma levels pg/mL (MLR) is 1290

Given item variant PD-L2 IgV H15Q/T47A/S67L/R76G/Q82R/V89D Fc fusion (Fc fusion) LFTVTVPKELYIIEQGSNVTLECNFDTGSHVNLGAITASLQKVENDASPHRERATLLEEQLPLGKALFHIPQVQVGDEGQYRCIIIYGDAWDYKYLTLKVKA , the value recorded as its IFN gamma levels pg/mL (MLR) is 1100

Given item variant PD-L2 IgV I13V/S39I/E44D/Q82R/V89D Fc fusion (Fc fusion) LFTVTVPKELYIVEHGSNVTLECNFDTGSHVNLGAITAILQKVDNDTSPHRERATLLEEQLPLGKASFHIPQVQVRDEGQYRCIIIYGDAWDYKYLTLKVKA , the value recorded as its IFN gamma levels pg/mL (MLR) is 936

Given item variant PD-L2 IgV H15Q/S39I/S67L/V89D Fc fusion (Fc fusion) LFTVTVPKELYIIEQGSNVTLECNFDTGSHVNLGAITAILQKVENDTSPHRERATLLEEQLPLGKALFHIPQVQVRDEGQYQCIIIYGDAWDYKYLTLKVKA , the value recorded as its IFN gamma levels pg/mL (MLR) is 1230

Given item variant PD-L2 IgV I13V/H15Q/L33F/T47A/Q82R/V89D Fc fusion (Fc fusion) LFTVTVPKELYIVEQGSNVTLECNFDTGSHVNFGAITASLQKVENDASPHRERATLLEEQLPLGKASFHIPQVQVRDEGQYRCIIIYGDAWDYKYLTLKVKA , the value recorded as its IFN gamma levels pg/mL (MLR) is 1470

Given item variant PD-L2 IgV H15Q/T47A/Q72H/R76G Fc fusion (Fc fusion) LFTVTVPKELYIIEQGSNVTLECNFDTGSHVNLGAITASLQKVENDASPHRERATLLEEQLPLGKASFHIPHVQVGDEGQYQCIIIYGVAWDYKYLTLKVKA , the value recorded as its IFN gamma levels pg/mL (MLR) is 1460

Given item variant PD-L2 IgV N32D/S67L/V89D Fc fusion (Fc fusion) LFTVTVPKELYIIEHGSNVTLECNFDTGSHVDLGAITASLQKVENDTSPHRERATLLEEQLPLGKALFHIPQVQVRDEGQYQCIIIYGDAWDYKYLTLKVKA , the value recorded as its IFN gamma levels pg/mL (MLR) is 1190

Given item variant PD-L2 IgV H15Q/T47A Fc fusion (Fc fusion) LFTVTVPKELYIIEQGSNVTLECNFDTGSHVNLGAITASLQKVENDASPHRERATLLEEQLPLGKASFHIPQVQVRDEGQYQCIIIYGVAWDYKYLTLKVKA , the value recorded as its IFN gamma levels pg/mL (MLR) is 1640

Given item variant PD-L2 IgV H15Q/N32D/S67L/V89D Fc fusion (Fc fusion) LFTVTVPKELYIIEQGSNVTLECNFDTGSHVDLGAITASLQKVENDTSPHRERATLLEEQLPLGKALFHIPQVQVRDEGQYQCIIIYGDAWDYKYLTLKVKA , the value recorded as its IFN gamma levels pg/mL (MLR) is 1290

Given item variant PD-L2 IgV H15Q/Q82R/V89D Fc fusion (Fc fusion) LFTVTVPKELYIIEQGSNVTLECNFDTGSHVNLGAITASLQKVENDTSPHRERATLLEEQLPLGKASFHIPQVQVRDEGQYRCIIIYGDAWDYKYLTLKVKA , the value recorded as its IFN gamma levels pg/mL (MLR) is 1080
